Tested on: JEG-3
Assay: Primary qHTS to identify gynecologic anti-cancer compounds using libraries of approved drugs and bioactive compounds (AID 1345084); also: % is scaled to controls: 0 for no effect and ±100 for the full control effect; nearly all actives have a fitted effect of over 55% in size
Conditions: Gynecologic cancer cell panel viability, ATPlite luminescence, 48 h; series mostly up to 57.5 µM
Records with an inconclusive call do not appear. The source made the active and inactive calls. Calls follow the shape of the dose curve; as a rule, active = well fitted cell-killing curve with a large enough effect; inconclusive = small, poorly fitted or top-dose-only effect, or effect the other way; inactive = flat fitted curve, though single readings scatter.
readout: activity change, negative = cytotoxicity

Some solved cases for reference:
1. CC(=O)O[C@@H]1[C@H](OC(C)=O)C[C@@]2(C)C(CC[C@@H](C)[C@]23Cc2c(O)cc4c(c2O3)CN([C@@H](CCC(=O)O)C(=O)O)C4=O)C1(C)C (stereo partly specified) = inactive
2. CCC[C@H](N[C@@H](C)C(=O)N1[C@H](C(=O)O)C[C@@H]2CCCC[C@@H]21)C(=O)O = inactive
3. C/C=C(\C)C(=O)OCC1OC(OC2OC(CO)C(O)C(O)C2O)C(O)C(O)C1O (stereo unspecified) = inactive
4. C[C@@H]1C(=O)O[C@H]2[C@H]1CC[C@@]1(C)C(=O)C=C[C@@](C)(O)[C@H]21 = inactive
5. CC1(C)CC[C@]2(C(=O)O)CC[C@]3(C)C(=CCC4[C@@]5(C)CC[C@H](O[C@@H]6O[C@H](C(=O)O)[C@@H](O)[C@H](O[C@@H]7O[C@H](CO)[C@H](O)[C@H](O)[C@H]7O)[C@H]6O[C@@H]6O[C@H](CO)[C@@H](O)[C@H](O)[C@H]6O)C(C)(C)C5CC[C@]43C)[C@@H]2C1 (stereo partly specified) = 4.16% [at 6.55 µM] (inactive)
6. O=C(/C=C/c1ccccc1)OC[C@H]1O[C@@H](OC(=O)c2cc(O)c(O)c(O)c2)[C@H](O)[C@@H](O)[C@@H]1O = inactive
7. O=C1OC(c2ccc(O)cc2)C(O)=C1Cc1ccccc1 (stereo unspecified) = inactive
8. CC(C)[C@@H](C(=O)O)N1Cc2c(cc(O)c3c2O[C@]2(C3)[C@H](C)CCC3C(C)(C)[C@H](O)[C@H](O)C[C@@]32C)C1=O (stereo partly specified) = inactive

Exercise: Fill: activity change, negative = cytotoxicity (JEG-3) for this compound CC1(C)CC[C@]2(C(=O)O)[C@H](O)C[C@]3(C)C(=CCC4[C@@]5(C)CC[C@H](O[C@@H]6OC[C@@H](O)[C@H](O)[C@H]6O)[C@@](C)(C(=O)O)C5CC[C@]43C)[C@@H]2C1 (stereo partly specified)
Solution: inactive

Exercise: Fill: activity change, negative = cytotoxicity (JEG-3) for this compound CC(=O)OCC1OC(OC2COC(OC3COC(OC4C(OC5C(CO)OC(OC6CCC7(C)C(CCC8(C)C7CC=C7C9CC(C)(C)CCC9(C(=O)OC9OC(CO)C(O)C(O)C9OC9OCC(OC%10OCC(O)(CO)C%10O)C(O)C9O)C(O)CC78C)C6(C)C)C(O)C5O)OCC(O)C4O)C(O)C3O)C(O)C2O)C(OC(=O)/C=C/c2ccccc2)C(O)C1OC(C)=O (stereo unspecified)
Solution: -2.72% [at 6.55 µM] (inactive)

Exercise: Fill: activity change, negative = cytotoxicity (JEG-3) for this compound CC1OC(O[C@H]2CC[C@@]3(C)C(CC[C@]4(C)C3CC=C3C5CC(C)(C)CC[C@]5(C(=O)OC5OC(CO)C(OC6OCC(OC7OCC(O)C(O)C7O)C(O)C6O)C(O)C5O)CC[C@]34C)C2(C)C)C(O)C(O)C1OC1OC(CO)C(O)C(OC2OC(CO)C(O)C(O)C2O)C1O (stereo partly specified)
Solution: -5.08% [at 6.55 µM] (inactive)
